Attribution: ChEMBL document CHEMBL5357072

- System: A549
- measurementNotes: Antiproliferative activity against human A549 cells assessed as cell growth inhibition at 10 uM incubated for 48 hrs by CCK8 assay relative to control
- Format: functional
- measurementSetup: read-out: GI
Reported inhibition of growth at 10 µM values for the following molecules.

{"molecule": "COc1ccc2c(c1OC)C(=O)O[C@@H]2[C@H]1c2c(c(CC3(F)CN(C(=O)OC(C)(C)C)C3)c3c(c2OC)OCO3)CCN1C(=O)OC(C)(C)C", "inhibition of growth at 10 µM": "< 5%"}
{"molecule": "COc1ccc2c(c1OC)C(=O)O[C@@H]2[C@H]1c2c(c(C3CCCC3)c3c(c2OC)OCO3)CCN1C(=O)OC(C)(C)C", "inhibition of growth at 10 µM": "< 5%"}
{"molecule": "COc1ccc2c(c1OC)C(=O)O[C@@H]2[C@H]1c2c(c(CC[Si](C)(C)C)c3c(c2OC)OCO3)CCN1C(=O)OC(C)(C)C", "inhibition of growth at 10 µM": "< 5%"}
{"molecule": "Nc1ccn([C@@H]2O[C@H](CO)[C@@H](O)C2(F)F)c(=O)n1", "inhibition of growth at 10 µM": "62.3%"}
{"molecule": "COc1ccc2c(c1OC)C(=O)O[C@@H]2[C@H]1c2c(c(Br)c3c(c2OC)OCO3)CCN1C", "inhibition of growth at 10 µM": "15.9%"}

Would you kindly share the measured inhibition of growth at 10 µM for COc1ccc2c(c1OC)C(=O)O[C@@H]2[C@H]1c2c(c(C3CCCCCC3)c3c(c2OC)OCO3)CCN1C(=O)OC(C)(C)C ?
< 5%

Would you kindly share the measured inhibition of growth at 10 µM for COc1ccc2c(c1OC)C(=O)O[C@@H]2[C@H]1c2c(c(CC3CCCN3C(=O)OC(C)(C)C)c3c(c2OC)OCO3)CCN1C(=O)OC(C)(C)C (some centres undefined) ?
< 5%

Would you kindly share the measured inhibition of growth at 10 µM for COc1ccc2c(c1OC)C(=O)O[C@@H]2[C@H]1c2c(c(C3CC4CCC3C4)c3c(c2OC)OCO3)CCN1C(=O)OC(C)(C)C (some centres undefined) ?
< 5%

Would you kindly share the measured inhibition of growth at 10 µM for COc1ccc2c(c1OC)C(=O)O[C@@H]2[C@H]1c2c(c(C3COC3)c3c(c2OC)OCO3)CCN1C(=O)OC(C)(C)C ?
< 5%

Would you kindly share the measured inhibition of growth at 10 µM for COc1ccc2c(c1OC)C(=O)O[C@@H]2[C@H]1c2c(c(CCCC(F)(F)F)c3c(c2OC)OCO3)CCN1C(=O)OC(C)(C)C ?
< 5%

Would you kindly share the measured inhibition of growth at 10 µM for CCC(C)Cc1c2c(c(OC)c3c1OCO3)[C@H]([C@H]1OC(=O)c3c1ccc(OC)c3OC)N(C(=O)OC(C)(C)C)CC2 (some centres undefined) ?
< 5%

Would you kindly share the measured inhibition of growth at 10 µM for CCOP(=O)(CCc1c2c(c(OC)c3c1OCO3)[C@H]([C@H]1OC(=O)c3c1ccc(OC)c3OC)N(C(=O)OC(C)(C)C)CC2)OCC ?
< 5%

Would you kindly share the measured inhibition of growth at 10 µM for COc1ccc2c(c1OC)C(=O)O[C@@H]2[C@H]1c2c(c(CC3CCCC3)c3c(c2OC)OCO3)CCN1C(=O)OC(C)(C)C ?
< 5%

Would you kindly share the measured inhibition of growth at 10 µM for COc1ccc2c(c1OC)C(=O)O[C@@H]2[C@H]1c2c(c(CC3CN(C(=O)OC(C)(C)C)C3)c3c(c2OC)OCO3)CCN1C(=O)OC(C)(C)C ?
10.6%
